- study system: recombinant human MAO-B (Homo sapiens, UniProt P27338)
- experimental details: MAO-B inhibition, MAO-Glo commercial kit
- experimental conditions: Ki converted from IC50 by Cheng-Prusoff; duplicate, mean ± SD; read-out: Ki hMAO-B
measured attribute: Ki (nM)

Sample records with Ki:
Query: Ki; subject: COc1ccc(C(=O)Nc2ccc(-c3nc4c([nH]3)c(=O)n(C)c(=O)n4C)cc2)cc1OC
Reply: 1920

Query: Moving on to the next compound: Cn1c(=O)c2c(nc(-c3ccc(NC(=O)/C=C/c4cccc(Cl)c4)cc3)n2C)n(C)c1=O
Reply: 630

Query: Moving on to the next compound: Cn1c(=O)c2[nH]c(-c3cccc(NC(=O)c4cccc(Cl)c4)c3)nc2n(C)c1=O
Reply: 1270

I: Cn1c(=O)c2c(nc(-c3ccc(NC(=O)c4cccc(Cl)c4)cc3)n2C)n(C)c1=O
II: Cn1c(=O)c2c(nc(-c3cccc(NC(=O)c4cccc(Cl)c4)c3)n2C)n(C)c1=O
III: COc1ccc(C(=O)Nc2cccc(-c3nc4c(c(=O)n(C)c(=O)n4C)n3C)c2)cc1OC
IV: Cn1c(=O)c2[nH]c(-c3ccc(NC(=O)c4cccc(Cl)c4)cc3)nc2n(C)c1=O
Query: Put the entries in order of Ki, starting with the largest number. Please reply with the labels ordered as requested. Many thanks.
Reply: III, I, II, IV
(III: 2540 nM, I: 1510 nM, II: 760 nM, IV: 250 nM)

----------
- experimental details: Plasma and brain distribution at 1 h after i.p. administration
- Format: in vivo
- experimental conditions: Sprague-Dawley, rat, brain, ip; rats, 1 h after i.p. 50 mg/kg, n = 6; read-out: Brain concentration
- Excerpt: Sprague-Dawley rats (200 ± 20 g) were obtained from the Laboratory Animal Center of Wenzhou Medical University (Wenzhou, China) to study the pharmacokinetics and tissue distribution studies (TDS) of PX-D-P6 and PX-E-P8 following intraperitoneal injection (i.p.) administration. The experiment procedures and protocols were approved the Animal Care and Use Committee of Wenzhou Medical College and complied with the Guide for the Care and Use of Laboratory Animals. […]
measured attribute: concentration at 1 h (ng/g)
Number only, in ng/g; omit the unit.

Query: concentration at 1 h; subject: Cn1c(=O)c2c(nc(-c3ccc(NC(=O)/C=C/c4cccc(Cl)c4)cc3)n2C)n(C)c1=O
Reply: 887

----------
- experimental details: Plasma pharmacokinetics after i.p. administration
- Type: in vivo, Sprague-Dawley rats
- experimental conditions: Sprague-Dawley, rat, plasma, ip, 50 mg/kg, rats, n = 6, read-out: Tmax
measured attribute: Tmax (min)
Number only, in min; omit the unit.

Query: Tmax; subject: Cn1c(=O)c2c(nc(-c3ccc(NC(=O)/C=C/c4cccc(Cl)c4)cc3)n2C)n(C)c1=O [PX-E-P8]
Reply: 28.8

----------
- experimental details: Plasma pharmacokinetics after i.p. administration
- Format: in vivo, Sprague-Dawley rats
- experimental conditions: Sprague-Dawley, rat, plasma, ip, rats, 50 mg/kg, n = 6
- Source text: Sprague-Dawley rats (200 ± 20 g) were obtained from the Laboratory Animal Center of Wenzhou Medical University (Wenzhou, China) to study the pharmacokinetics and tissue distribution studies (TDS) of PX-D-P6 and PX-E-P8 following intraperitoneal injection (i.p.) administration. The experiment procedures and protocols were approved the Animal Care and Use Committee of Wenzhou Medical College and complied with the Guide for the Care and Use of Laboratory Animals. […]
measured attribute: Cmax (µg/mL)
Number only, in µg/mL; omit the unit.

Query: Cmax; subject: Cn1c(=O)c2c(nc(-c3ccc(NC(=O)/C=C/c4cccc(Cl)c4)cc3)n2C)n(C)c1=O [PX-E-P8]
Reply: 1.64

----------
- study system: recombinant human MAO-B (Homo sapiens, UniProt P27338)
- Sequence (P27338 1-520): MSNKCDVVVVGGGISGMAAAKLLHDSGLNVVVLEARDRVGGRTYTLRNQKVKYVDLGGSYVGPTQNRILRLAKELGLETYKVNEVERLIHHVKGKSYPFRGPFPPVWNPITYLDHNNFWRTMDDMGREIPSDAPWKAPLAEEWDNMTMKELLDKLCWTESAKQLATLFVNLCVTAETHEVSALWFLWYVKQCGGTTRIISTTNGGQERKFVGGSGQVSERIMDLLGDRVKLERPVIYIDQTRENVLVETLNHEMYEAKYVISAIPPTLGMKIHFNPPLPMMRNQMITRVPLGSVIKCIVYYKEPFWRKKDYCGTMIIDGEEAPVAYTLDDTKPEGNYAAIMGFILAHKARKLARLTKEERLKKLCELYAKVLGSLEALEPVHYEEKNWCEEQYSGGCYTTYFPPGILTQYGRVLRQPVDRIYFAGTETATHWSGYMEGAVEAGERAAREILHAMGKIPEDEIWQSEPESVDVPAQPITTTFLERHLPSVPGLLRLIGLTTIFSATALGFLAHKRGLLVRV
- experimental details: MAO-B inhibition, MAO-Glo commercial kit
- experimental conditions: Ki converted from IC50 by Cheng-Prusoff; duplicate, mean ± SD; read-out: Ki hMAO-B
measured attribute: Ki (nM)

Query: Ki; subject: COc1ccc(C(=O)Nc2ccc(-c3nc4c(c(=O)n(C)c(=O)n4C)n3C)cc2)cc1OC [PX-D-P10]
Reply: 2970

Query: Moving on to the next compound: COc1ccc(C(=O)Nc2cccc(-c3nc4c([nH]3)c(=O)n(C)c(=O)n4C)c2)cc1OC [PX-D-M5]
Reply: 2360

----------
- experimental details: Plasma and brain distribution at 1 h after i.p. administration
- Type: in vivo
- experimental conditions: Sprague-Dawley, rat, brain and plasma, ip; rats, 1 h after i.p. 50 mg/kg; read-out: B/P Ratio (brain/plasma ratio)
measured attribute: Kp at 1 h
Answer field: number only, no words.

Query: Kp at 1 h; subject: Cn1c(=O)c2c(nc(-c3ccc(NC(=O)/C=C/c4cccc(Cl)c4)cc3)n2C)n(C)c1=O [PX-E-P8]
Reply: 0.97

----------
- experimental details: Plasma pharmacokinetics after i.p. administration
- Assay type: in vivo, Sprague-Dawley rats
- experimental conditions: Sprague-Dawley, rat, plasma, ip, rats, 50 mg/kg, n = 6
- From the text: Sprague-Dawley rats (200 ± 20 g) were obtained from the Laboratory Animal Center of Wenzhou Medical University (Wenzhou, China) to study the pharmacokinetics and tissue distribution studies (TDS) of PX-D-P6 and PX-E-P8 following intraperitoneal injection (i.p.) administration. The experiment procedures and protocols were approved the Animal Care and Use Committee of Wenzhou Medical College and complied with the Guide for the Care and Use of Laboratory Animals. […]
measured attribute: AUC(0-t) (ng·h/mL)
Number only, in ng·h/mL; omit the unit.

Query: AUC(0-t); subject: Cn1c(=O)c2c(nc(-c3ccc(NC(=O)/C=C/c4cccc(Cl)c4)cc3)n2C)n(C)c1=O
Reply: 15600

----------
- experimental details: Plasma pharmacokinetics after i.p. administration
- Format: in vivo, Sprague-Dawley rats
- experimental conditions: Sprague-Dawley, rat, plasma, ip, rats, 50 mg/kg, n = 6
measured attribute: half-life (h)
Number only, in h; omit the unit.

Query: half-life; subject: Cn1c(=O)c2c(nc(-c3ccc(NC(=O)/C=C/c4cccc(Cl)c4)cc3)n2C)n(C)c1=O
Reply: 3.27

Origin of values: paper PMC6152622
